Where a SMILES comes first, the peptide text is derived from it. Bridges are numbered along the chain shown (N, C = ends). [ ]: non-standard residue; d: D form. The star is where a group is joined. NMePhe(3-Cl) = CN[C@@H](Cc1cccc(Cl)c1)C(=O)O; NMehPhe = CN[C@@H](CCc1ccccc1)C(=O)O; hhPhe = N[C@@H](CCCc1ccccc1)C(=O)O; NMeF = CN[C@@H](Cc1ccccc1)C(=O)O; hPhe = N[C@@H](CCc1ccccc1)C(=O)O; 3Pal = N[C@@H](Cc1cccnc1)C(=O)O; NMeD = CN[C@@H](CC(=O)O)C(=O)O; NMeL = CN[C@@H](CC(C)C)C(=O)O; NMeV = CN[C@H](C(=O)O)C(C)C; NMeA = CN[C@@H](C)C(=O)O; Piperidide = C1CCN(*)CC1; dNMeA = CN[C@H](C)C(=O)O; Sar = CNCC(=O)O; tBu = CC(C)(C)*
// Caco-2 collected for Caco-2
testReadout: Caco-2 (cm/s)

[
  {
    "compound": "CC(C)C[C@H]1C(=O)N(C)[C@@H](CCc2ccccc2)C(=O)N[C@@H](COC(C)(C)C)C(=O)N(C)[C@@H](C)C(=O)N[C@H](C(=O)N2CCCCC2)CC(=O)N(C)[C@@H](C)C(=O)N(C)[C@@H](Cc2ccccc2)C(=O)N[C@@H](CCc2ccccc2)C(=O)N(C)[C@@H](CC(C)C)C(=O)N[C@@H]([C@@H](C)O)C(=O)N(C)CC(=O)N1C [pd184] ([NMeA][NMeF][hPhe][NMeL]T[Sar][NMeL][NMehPhe]S(tBu)[NMeA]D-Piperidide; lactam N-11)",
    "testReadout": "Caco-2",
    "val": "1.2e-06"
  },
  {
    "compound": "CC(C)C[C@H]1C(=O)N[C@@H]([C@@H](C)O)C(=O)N(C)CC(=O)N(C)[C@@H](C(C)C)C(=O)N[C@@H](Cc2ccccc2)C(=O)N(C)[C@@H](Cc2cccc(Cl)c2)C(=O)N(C)[C@@H](CC(C)C)C(=O)N(C)[C@H](C(=O)N2CCCCC2)CC(=O)N2CCC[C@@H]2C(=O)N[C@@H](Cc2ccccc2)C(=O)N[C@@H](COC(C)(C)C)C(=O)N1C [pd163] ([dP]FS(tBu)[NMeL]T[Sar][NMeV]F[NMePhe(3-Cl)][NMeL][NMeD]-Piperidide; lactam N-11)",
    "testReadout": "Caco-2",
    "val": "1.7e-06"
  },
  {
    "compound": "CC(C)C[C@@H]1NC(=O)[C@H](Cc2ccccc2)N(C)C(=O)[C@@H](C)N(C)C(=O)C[C@@H](C(=O)N2CCCCC2)N(C)C(=O)[C@H](Cc2ccccc2)N(C)C(=O)[C@H](Cc2ccccc2)N(C)C(=O)[C@H](COC(C)(C)C)NC(=O)[C@H](C(C)C)N(C)C(=O)CN(C)C(=O)[C@H]([C@@H](C)O)NC(=O)[C@H](CC(C)C)N(C)C1=O [pd199] ([dNMeA][NMeF]L[NMeL]T[Sar][NMeV]S(tBu)[NMeF][NMeF][NMeD]-Piperidide; lactam N-11)",
    "testReadout": "Caco-2",
    "val": "2.6e-06"
  },
  {
    "compound": "CC(C)C[C@@H]1NC(=O)[C@H](Cc2ccccc2)N(C)C(=O)[C@H](C)N(C)C(=O)C[C@@H](C(=O)N2CCCCC2)NC(=O)[C@H](C(C)C)N(C)C(=O)[C@H](Cc2ccccc2)N(C)C(=O)[C@H](COC(C)(C)C)NC(=O)[C@H](CC(C)C)N(C)C(=O)CN(C)C(=O)[C@H](Cc2cccnc2)NC(=O)[C@H](CC(C)C)N(C)C1=O [pd197] ([NMeA][NMeF]L[NMeL][3Pal][Sar][NMeL]S(tBu)[NMeF][NMeV]D-Piperidide; lactam N-11)",
    "testReadout": "Caco-2",
    "val": "3e-06"
  },
  {
    "compound": "CC(C)C[C@H]1C(=O)N[C@@H](COC(C)(C)C)C(=O)N(C)[C@@H](Cc2ccccc2)C(=O)N(C)[C@@H](C(C)C)C(=O)N[C@H](C(=O)N2CCCCC2)CC(=O)N[C@H](C)C(=O)N(C)[C@@H](Cc2ccccc2)C(=O)NC(COc2cccc(Cl)c2)C(=O)N(C)[C@@H](C(C)C)C(=O)N[C@@H]([C@@H](C)O)C(=O)N(C)CC(=O)N1C (stereo partly drawn)",
    "testReadout": "Caco-2",
    "val": "2.2e-06"
  },
  {
    "compound": "CC[C@H](C)[C@@H]1NC(=O)[C@H](Cc2ccccc2)N(C)C(=O)CN(C)C(=O)C[C@@H](C(=O)N2CCCCC2)NC(=O)[C@H](C)N(C)C(=O)[C@H](CCCc2ccccc2)NC(=O)[C@H](CC(C)C)N(C)C(=O)[C@H](Cc2ccccc2)N(C)C(=O)CN(C)C(=O)[C@H]([C@@H](C)O)NC(=O)[C@H](CC(C)C)N(C)C1=O [pd190] ([Sar][NMeF]I[NMeL]T[Sar][NMeF][NMeL][hhPhe][NMeA]D-Piperidide; lactam N-11)",
    "testReadout": "Caco-2",
    "val": "1.5e-06"
  },
  {
    "compound": "CC(C)C[C@H]1C(=O)N(C)[C@@H](Cc2ccccc2)C(=O)N[C@@H](COC(C)(C)C)C(=O)N(C)[C@@H](C)C(=O)N[C@H](C(=O)N2CCCCC2)CC(=O)N(C)[C@@H](C)C(=O)N(C)[C@@H](Cc2ccccc2)C(=O)N[C@@H](CCc2ccccc2)C(=O)N(C)[C@@H](CC(C)C)C(=O)N[C@@H]([C@@H](C)O)C(=O)N(C)CC(=O)N1C [pd183] ([NMeA][NMeF][hPhe][NMeL]T[Sar][NMeL][NMeF]S(tBu)[NMeA]D-Piperidide; lactam N-11)",
    "testReadout": "Caco-2",
    "val": "2.1e-06"
  },
  {
    "compound": "CC(C)C[C@@H]1NC(=O)[C@H](Cc2ccccc2)N(C)C(=O)[C@@H]2CCCN2C(=O)C[C@@H](C(=O)N2CCCCC2)N(C)C(=O)[C@H](Cc2ccccc2)N(C)C(=O)[C@H](Cc2ccccc2)N(C)C(=O)[C@H](COC(C)(C)C)NC(=O)[C@H](C(C)C)N(C)C(=O)CN(C)C(=O)[C@H]([C@@H](C)O)NC(=O)[C@H](CC(C)C)N(C)C1=O [pd196] (P[NMeF]L[NMeL]T[Sar][NMeV]S(tBu)[NMeF][NMeF][NMeD]-Piperidide; lactam N-11)",
    "testReadout": "Caco-2",
    "val": "4e-06"
  },
  {
    "compound": "CC(C)C[C@H]1C(=O)N[C@@H](COC(C)(C)C)C(=O)N(C)[C@@H](Cc2ccccc2)C(=O)N(C)[C@@H](C(C)C)C(=O)N[C@H](C(=O)N2CCCCC2)CC(=O)N[C@H](C(C)C)C(=O)N(C)[C@@H](Cc2ccccc2)C(=O)N[C@@H](COc2cccc(Cl)c2)C(=O)N(C)[C@@H](C)C(=O)N[C@@H]([C@@H](C)O)C(=O)N(C)CC(=O)N1C",
    "testReadout": "Caco-2",
    "val": "1.9e-06"
  }
]

###

# protocolText: Membrane permeability test of cyclic peptides (Caco-2, modified/improved method of WO 2018/124162)
# studyConditions: human, Caco-2, Caco-2, Papp, membrane permeability; cyclic peptides comprising Ser(Et-2-NMe2) or Gln(Ms) (Table 27)
*1 amine or outer side, *2 acyl side, *3 side chain or, on linkers, in order; H or OH if unused. Where a SMILES comes first, the peptide text is derived from it. Bridges are numbered along the chain shown (N, C = ends). [ ]: non-standard residue; d: D form. The star is where a group is joined. NMeF = CN[C@@H](Cc1ccccc1)C(=O)O; NMeGABA = CN(CCCC(=O)[*:2])[*:1]; NMeL = CN[C@@H](CC(C)C)C(=O)O; Piperidide = C1CCN(*)CC1; Me2NCH2CH2 = CN(C)CC*

[
  {
    "compound": "CC(C)C[C@@H]1NC(=O)[C@H](Cc2ccccc2)N(C)C(=O)[C@H](Cc2ccccc2)N(C)C(=O)[C@H](COCCN(C)C)NC(=O)[C@H](CC(C)C)N(C)C(=O)CCCN(C)C(=O)C[C@@H](C(=O)N2CCCCC2)NC(=O)[C@H](CC(C)C)N(C)C(=O)[C@H](CC(C)C)N(C)C(=O)[C@H]([C@@H](C)O)NC(=O)[C@H](CC(C)C)N(C)C1=O [pd55] ([NMeGABA][NMeL]S(Me2NCH2CH2)[NMeF][NMeF]L[NMeL]T[NMeL][NMeL]D-Piperidide; lactam N-11)",
    "Papp [×10⁻⁶ cm/s]": 0.1
  }
]
